Test system: NCI-H226
Assay: NCI tumour cell line growth inhibition, 48 h
Active and inactive are the calls of the source. Rule as the data show it: active = GI50 up to about 1.1 µM and inactive = higher.
readout-label: GI50

input: Fill in the blank: the reported GI50 of O=C(CSC1=NC(=O)C2(NN1)c1ccccc1-c1ccccc12)NC(=S)Nc1ccccc1 is ____.
output: 8.2 µM (inactive)

input: // next record c1ccc(Cc2cccc3cc(-c4ccc(-c5ccccc5)cc4)[nH]c23)cc1
output: > 100 µM (inactive)

input: // next record CC1=NN(c2cccc(Cl)c2)C2(SCC(=O)N2c2nc3ccccc3s2)C1=CC=Cc1ccccc1 (stereo not drawn)
output: 53 µM (inactive)

###

System: M19-MEL
Assay: NCI tumour cell line growth inhibition, 48 h
The source made the active and inactive calls. Rule as the data show it: active = GI50 up to about 1.1 µM and inactive = higher.
readout-label: GI50

input: Fill in the blank: the reported GI50 of CN(C)CCOc1cc2c(c3ccccc13)-c1ccccc1C2O (stereo unspecified) is ____.
output: 16.6 µM (inactive)

input: // next record COC(=O)C(=O)C(C(=O)C(=O)Nc1ccc(F)cc1)c1nc2ccc([N+](=O)[O-])cc2nc1O (stereo unspecified)
output: > 100 µM (inactive)

input: // next record COc1ccccc1C(=O)N(Cc1ccccc1)c1ccc(Cl)c(C(=O)OC(C)C)c1
output: 25.8 µM (inactive)

input: // next record CN(C)CC/[N+]([O-])=C(/c1ccccc1)C12CC3CC(CC(C3)C1)C2
output: 13.8 µM (inactive)

input: // next record COc1ccc2cc3n(c2c1)CCc1cc(OC)c(OC)cc1-3
output: > 100 µM (inactive)

input: // next record N#CC(Sc1ccccc1)C(N)=O (stereo unspecified)
output: > 100 µM (inactive)

input: // next record Fc1ccc2c(c1)SC1Oc3ccccc3-c3c1c-2nn3-c1ccccc1 (stereo unspecified)
output: > 100 µM (inactive)

input: // next record C[Si](C)(C)/C(Br)=C\CCN1C(=O)CCC1=O
output: > 100 µM (inactive)

input: // next record COc1ccc2cc3nc(O)cc(O)c3cc2c1OC
output: > 100 µM (inactive)

input: // next record CC(=O)NS(=O)(=O)c1ccc(NC(=O)COC(=O)c2cccc3c(=O)c4ccccc4[nH]c23)cc1
output: > 100 µM (inactive)

input: // next record CC(CC(=O)Nc1ccc(NC(=O)CC(C)/N=N\C(N)=O)cc1)/N=N\C(N)=O (stereo unspecified)
output: > 100 µM (inactive)

input: // next record Fc1ccc(C2SCc3nc4ccccc4n32)cc1F (stereo unspecified)
output: 28.6 µM (inactive)

input: // next record O=C(NNC(=S)Nc1ccccc1)c1nsc2ccccc12
output: 28.9 µM (inactive)

input: // next record CNS(=O)(=O)NN(C)S(=O)(=O)c1ccc2ccccc2c1
output: > 100 µM (inactive)

input: // next record COC(=O)CCC(NC(=S)N/N=C(\C)c1ccco1)C(=O)OC (stereo unspecified)
output: > 100 µM (inactive)

input: // next record Cc1[nH]c2ccccc2c1C1Cc2ccccc2N1C(=O)/C=C/C=C/c1ccccc1 (stereo unspecified)
output: > 100 µM (inactive)

input: // next record O=C(CCc1cc(-c2ccccc2)[nH]c(=S)n1)Nc1ccccc1[N+](=O)[O-]
output: > 100 µM (inactive)

input: // next record C/C(=C\Cc1cc(O)ccc1O)CCc1c(C)c(O)c(O)c(C=O)c1C
output: 17.7 µM (inactive)

input: // next record Nc1ccc(C(=O)/C=C/c2ccccc2O)cc1
output: > 100 µM (inactive)

input: // next record O=S(=O)(O)c1cc(/N=N/c2cc(S(=O)(=O)O)c3ccccc3c2O)ccc1/C=C/c1ccc(/N=N/c2cc(S(=O)(=O)O)c3ccccc3c2O)cc1S(=O)(=O)O
output: > 100 µM (inactive)

input: // next record CCCCNS(=O)(=O)c1ccc(-c2ccc3c(c2)-c2ccc(S(=O)(=O)NCCCC)cc2S3(=O)=O)cc1
output: 21.5 µM (inactive)

input: // next record CN(C)C(=O)Oc1c(Br)cc(Br)cc1C(=O)OCc1ccccc1
output: 20 µM (inactive)

input: // next record CC1(C)C(=NNC(=S)NN)C(C)(C)C1=NNC(=S)NN
output: > 100 µM (inactive)

input: // next record O=C1OC(O)C(Oc2ccc(Cl)cc2)=C1Cl (stereo unspecified)
output: > 100 µM (inactive)

input: // next record N#Cc1cccc(NC(=O)c2ccc(C(=O)O)c(C(=O)c3ccc(C(=O)O)c(C(=O)Nc4cccc(C#N)c4)c3)c2)c1
output: > 100 µM (inactive)

input: // next record [N-]=[N+]=NCC(O)Cn1cnc2c(NC(=O)c3ccccc3)ncnc21 (stereo unspecified)
output: > 100 µM (inactive)
